Experiment: folding stability dG unfold from trypsin proteolysis; higher = more stable
MEASURED ATTRIBUTE: folding stability dG unfold (kcal/mol)
One number for each entry, in kcal/mol.

Record excerpt, results attached:
CHAIN | folding stability dG unfold / kcal/mol
SAKMTAEEIAAALAEELGLEVVEVVEVDEETGKITIRVDGKLIEITVVEEDGELKIEVRVVDEETGEELSAG [r14_270_TrROS_Hall] | 1.84
TIVIENASVEQIKNAIKEAIKEGKEVKIIIKASPEEKEKIIEELKKLPEIKKVEKLPNGSIKITIKAKELKS [r1_324_TrROS_Hall] | 1.76

Consider the record given below.
// fetch folding stability dG unfold given entry SAGGSAMVRIEVELENGEKLEIEIEVPEEMTEEELLEKAKELAKELAEKLGIPEAKVKVVKIEVVPSAGGSA [r15_463_TrROS_Hall] 4.06

---

Assay: folding stability dG unfold (combined trypsin and chymotrypsin); higher = more stable
MEASURED ATTRIBUTE: folding stability dG unfold (kcal/mol)
Numbers only, in kcal/mol.

CHAIN | MEASURED ATTRIBUTE | MEASURED NUMBER
SAGKELTIEIVIERNGELITLTIKAKSEEELLEALKKLLEELGFEVEDIKIEKKDGEVIVTVTIRLPKKSAG [r5_946_TrROS_Hall] | folding stability dG unfold | 3.43

Parameter requested: folding stability dG unfold. Apply to each item below.
1. SAGGYIPASARIEVLEVFEDGTVRVRVTYPDGSEAEVVARLVRTADGRVYLEIFDPRTGRLLATLELTSAGG [r13_527_TrMRF]
2. SAGGSAGGSAGMTVPPELSVTITRSPEGSLRVESPVPDRELTIPPDVPLTVSPDNVVTVASAGGSAGGSAGG [r17_49_JUSTAS]
3. SAGGSAGGSAGGPKVFKFKDKIIVIYPNKKPNEEVKVVVKNPKTGKKEEFKIKIPKELLKSAGGSAGGSAGG [r7_834_TrMRF]
4. SAGGSAGGAEELAEELERALPEGEVTEVRVEVVELPEGEPEVVVTVRVKRDGKEVKELPVIRVPSAGGSAGG [r6_630_TrROS_Hall]
5. SAGGPMYIVIKVEVWNPDNGKKREINIVIPIPPGMTPEQMLEKAKELARTIAEENGYEVRIDEIHIFSAGGS [r8_312_TrROS]

1: 3.88; 2: 0.655; 3: 0.847; 4: -0.997; 5: 3.03

---

Test: folding stability dG unfold from chymotrypsin proteolysis; higher = more stable
MEASURED ATTRIBUTE: folding stability dG unfold (kcal/mol)
Give bare numbers, in kcal/mol.

CHAIN | UNIT ABBREV | folding stability dG unfold
SAGGSAGGSAGGAVTPETIELPDATITVYTYPEGVVVEVTDPETGQATVISPEEFERLLASAGGSAGGSAGG [r7_372_JUSTAS] | kcal/mol | 1.21

Parameter requested: folding stability dG unfold. Apply to each item below.
1. SAKMTAEEIAAALAEELGLEVVEVVEVDEETGKITIRVDGKLIEITVVEEDGELKIEVRVVDEETGEELSAG [r14_270_TrROS_Hall]
2. SAGGEEVILTLPDGSPVRVIPDEGTASFELPGYRVETEVLPDGRIRLTVRDPAAGALVRELDLGLLRSAGGS [r16_760_JUSTAS]
3. SIEFKEGQWFPIREIDNNHIEWKHNNEPYKIPPDEIDEPGDWIRITNGRIPEIRPPPPPPVDPEDAKKKKSA [r9_842_TrROS]
4. SAGGSAGGSAIVILLPWGFLIEIKNIRMEMKRDPGNGEPKMDMHIPIEIIPIPPPGDPAFQESAGGSAGGSA [r18_6_TrROS]
5. SAGGSAGGSAGGSMTLKVTLTPPSGEVVEFEITEEELDKLKEELPEDWSISTEPIPELESAGGSAGGSAGGS [r4_63_JUSTAS]
6. SAGGSAGGSATLTLELEIEVDGVRFRVRAELRLDEDGRLHLRVEIEVEPLPPPPPLVAEGEELSAGGSAGGS [r20_30_TrROS_Hall]

1: 0.852; 2: 0.789; 3: 4.12; 4: 3.17; 5: 2.13; 6: 4.33

---

Test: folding stability dG unfold (combined trypsin and chymotrypsin); higher = more stable
Answer Not satisfied if folding stability dG unfold is under 5 kJ/mol, and Satisfied if it is 5 kJ/mol or more.

Examples with answers:
CHAIN | CAT
SKVLELLKELAKKLGATITEVKVEKLEDGTVKVTATITVTYLDKNGKPVKTETLTLTITVKNGKITEIKLSA [r9_519_TrROS_Hall] | Satisfied
SSPMTVEELLERHPNLLVVRLPDGTVYLFDPEKETLYTVTPGTGEVTVTPLSLEELLALLPAAGHEVLPLSA [r9_721_JUSTAS] | Satisfied
SAKEIASGTFLLDNGATLTVTSIKYDPETGKVSIPVELTVYVPKIDPNDPNKPTIEPFTFKITFTFKVDSAG [r14_888_TrMRF] | Satisfied
SAGGSAGGSVIPFPGNSRIYVTEVREDGVKIKFPDIGTEITVPANVPINLVGNPTIGPDGTPYSAGGSAGGS [r20_105_TrMRF] | Not satisfied
SAGGIPPNDPEYQQKMQLLKEIQNFAKEQQQNGRDVKIETIEINPEDGRVTITVQYPNGKKVTITIPSAGGS [r8_277_TrROS] | Satisfied
SAGGSAGGSAMPFRVKVPPGSRVLVTRYLPGGLEREEVELSEDEDELVVEAESGVVEVRVLDSAGGSAGGSA [r18_124_TrMRF] | Not satisfied
SAGGGMNEKVIEIEVTVTAPDGKVTTNPTTVVSNSLEEVKASIKASIPPNWSITVTVLKTKSLKEVLSSAGG [r13_513_JUSTAS] | Not satisfied
SAGGSAGGSAMKPERIELPGNEVAVIEKVPEAGVYIVTFKKPEGDEPLGEKIFKPDEIDLKLESAGGSAGGS [r20_190_JUSTAS] | Not satisfied
SAGGSAGLEGVAKAILDKLPPNRKIAAFTVNEEEAKTATFTTPDGNEINITAAGDKIASIDIIDAESAGGSA [r15_175_TrMRF] | Not satisfied
SAGGSMSPWHWARHIAKKLRKKFPPGKKVRIKIEYDDGPVEFEIPPGEWIPIPSNAPIEILNIKVKSAGGSA [r2_391_TrROS] | Satisfied

Answer whether folding stability dG unfold of SAGGSSYSVAQSPGPARLYSVPQPDGRVVEVDVEELPGGLLRVRVPDDPVPRLFPASLSLADIVSLSAGGSA [r2_338_JUSTAS] is greater than or equal to 5 kJ/mol. Not satisfied

Answer whether folding stability dG unfold of SAGGSAGGSAGGSDYIMFRIPAPPGEKIEIPIPNGWEVEINPQPHNGRWYFMIKIPEDASAGGSAGGSAGGS [r4_360_TrROS] is greater than or equal to 5 kJ/mol. Not satisfied

Answer whether folding stability dG unfold of SAGGSAGGSKKKVTINIVLTVKPGETLTLTVEITIDGKKYKVTKTLTYDPKTNKLVLTATVEPSAGGSAGGS [r12_136_TrROS_Hall] is greater than or equal to 5 kJ/mol. Satisfied

---

Test: folding stability dG unfold (combined trypsin and chymotrypsin); higher = more stable
Please respond with reported folding stability dG unfold for every item in the list.
Quick note: unit goes after the number.

Record excerpt, results attached:
CHAIN | RESULT
SAGGSAGGSAGSMTLLATETFPETGKTVKYYKEGDTIYRVDYSDPKNPVVTELSPSDPLKSAGGSAGGSAGG [r17_145_JUSTAS] | 2.12 kcal/mol
SAGGSAGGSAGMKTTYDPDTNKLSITLPNGTVATYYLGTGVIEIPDEVSSKEDIKVEKAASAGGSAGGSAGG [r17_174_JUSTAS] | 0.79 kcal/mol
SAGGSAGGSAGPKIPKNYKIVATYTVPPTNKKKLILYDPKTNKPLIFDTVSGKIYPFGKKSAGGSAGGSAGG [r11_268_TrMRF] | 1.84 kcal/mol
SAGGSAGGSAGETVTLTLTVTVTRTYYDAETGEEVEQETETRTLTLTMSKEELERLLKELSAGGSAGGSAGG [r17_283_TrROS_Hall] | 4.44 kcal/mol
SAGMKAYIVSVEKNEDGTETIKLKVYFLDKNGKVVETKEITIKKGETIKITFPNGKTITVPAKDLKLVKSAG [r5_137_TrROS_Hall] | 3.24 kcal/mol

Parameter requested: folding stability dG unfold. Apply to each item below.
1. SAGGGELYIMFKFDFTFWINNGTISFDMYIMIRIPIPPPPVPIELEDDPDGSYKYEYPNGKEHEVPNSAGGS [r16_136_TrROS]
2. SAGGSAKKPKWIPIKIKLPGSLEEAREWAEEIAKWLAKQNGDIKIDAIKYERDPNGHVEVTIQVRVSAGGSA [r15_718_TrROS]

3.23 kcal/mol
3.36 kcal/mol
